Recorded values, source PubChem BioAssay (Tox21).

STUDY_TARGET: Thyrotropin receptor (Homo sapiens)
EXPERIMENT_SUMMARY: qHTS assay to identify small molecule antagonists of the thyroid stimulating hormone receptor (TSHR) signaling pathway (AID 1259385); also: nearly all actives have a fitted effect of over 20% in size
CONDITION_DETAILS: TSHR-HEK293 cAMP HTRF, TSH-stimulated antagonist mode; series mostly up to 92.4 µM
Inconclusive results are not listed. Activity calls are given as the source filed them. Calls follow the shape of the full dose curve.
Your reply should match one of these outcome classes. label 1 = active, label 0 = inactive

Exercise: Returns: the outcome recorded for O=C(CCCN1CCC(O)(c2ccc(Cl)cc2)CC1)c1ccc(F)cc1 in this assay.
Key: label 0

Exercise: Assay result, entry C[C@]12C=CC(=O)C=C1CC[C@H]1[C@@H]3C[C@@H](O)[C@](O)(C(=O)CO)[C@@]3(C)C[C@H](O)[C@@]12F — outcome?
Key: label 0

Exercise: For CN(C)/N=N/c1nc[nH]c1C(N)=O , which call appears in the assay record?
Key: label 0

Exercise: I'd appreciate the recorded outcome for CCOC(=O)C(C)Oc1ccc(Oc2cnc3cc(Cl)ccc3n2)cc1 (configuration not stated) from this test.
Key: label 0

Exercise: Which outcome was assigned to CCCOCCO in this test?
Key: label 0

Exercise: Check the results log: what was the call for CCc1cccc2c3c([nH]c12)C(CC)(CC(=O)O)OCC3 (configuration not stated) ?
Key: label 0

Exercise: Name the outcome recorded for C[C@]12CC[C@@H]3c4ccc(O)cc4CC[C@H]3[C@@H]1CC[C@H]2O in the assay.
Key: label 1

Exercise: Could you please tell me the result logged for Cc1ccc(S(=O)(=O)NCl)cc1 in this assay?
Key: label 0

Exercise: What outcome does the record of this test show for CCCCCCCCCCC(CO)CCCCCCCC (configuration not stated) ?
Key: label 0

Exercise: Please state the recorded outcome for this compound: Cc1ccc(S(=O)(=O)O)cc1C
Key: label 0

Exercise: Fill in: this test's call for CN(Cc1cnc2nc(N)nc(N)c2n1)c1ccc(C(=O)N[C@@H](CCC(=O)O)C(=O)O)cc1 is ___
Key: label 0

Exercise: Assay result, entry C=CC(=O)OCCCC — outcome?
Key: label 0
